Tested on: SCID mice bearing twin HEK293-CCK2i4svR and wtHEK293 tumors
Assay: Biodistribution in SCID mice bearing twin HEK293-CCK2i4svR and wtHEK293 xenografts
Format: in vivo
Details: 4 h pi
Listed next: entries and their corresponding Biodistribution, CCK2i4svR(-) Tumor.
Answer format: value, then unit.

// known answers, use as guide
{"columns": ["molecule", "quantity_name", "measured_result"],
 "data": [
  ["CC(C)(C)C(=O)CN1C(=O)[C@H](NC(=O)Nc2cccc(C(=O)NCCOCCOCCOCCNC(=O)[C@H](CCC(=O)O)NC(=O)CN3CCN(CC(=O)[O-])CCN(CC(=O)[O-])CCN(CC(=O)[O-])CC3)c2)CN(C2CCCCC2)c2ccccc21.[111In+3] (stereo in doubt) [[^111In]In-GAS1]", "Biodistribution, CCK2i4svR(-) Tumor", "0.73 ± 0.05 %IA/g"],
  ["CC(C)(C)C(=O)CN1C(=O)[C@H](NC(=O)Nc2cccc(C(=O)NCCOCCOCCOCCNC(=O)[C@H](CCC(=O)O)NC(=O)CCC(C(=O)O)N3CCN(CC(=O)[O-])CCN(CC(=O)[O-])CCN(CC(=O)[O-])CC3)c2)CN(C2CCCCC2)c2ccccc21.[177Lu+3] (stereo in doubt) [[^177Lu]Lu-GAS3]", "Biodistribution, CCK2i4svR(-) Tumor", "1.14 ± 0.50 %IA/g"],
  ["CC(C)(C)C(=O)CN1C(=O)[C@H](NC(=O)Nc2cccc(C(=O)NCCOCCOCCOCCNC(=O)[C@H](CCC(=O)O)NC(=O)CCC(C(=O)[O-])N3CCN(CC(=O)[O-])CCN(CC(=O)[O-])CC3)c2)CN(C2CCCCC2)c2ccccc21.[67Ga+3] (stereo in doubt) [[^67Ga]Ga-GAS2]", "Biodistribution, CCK2i4svR(-) Tumor", "0.19 ± 0.08 %IA/g"],
  ["CC(C)(C)C(=O)CN1C(=O)[C@H](NC(=O)Nc2cccc(C(=O)NCCOCCOCCOCCNC(=O)[C@H](CCC(=O)O)NC(=O)CN3CCN(CC(=O)[O-])CCN(CC(=O)[O-])CCN(CC(=O)[O-])CC3)c2)CN(C2CCCCC2)c2ccccc21.[67Ga+3] (stereo in doubt) [[^67Ga]Ga-GAS1]", "Biodistribution, CCK2i4svR(-) Tumor", "0.75 ± 0.19 %IA/g"],
  ["CC(C)(C)C(=O)CN1C(=O)[C@H](NC(=O)Nc2cccc(C(=O)NCCOCCOCCOCCNC(=O)[C@H](CCC(=O)O)NC(=O)CN3CCN(CC(=O)[O-])CCN(CC(=O)[O-])CCN(CC(=O)[O-])CC3)c2)CN(C2CCCCC2)c2ccccc21.[177Lu+3] (stereo in doubt) [[^177Lu]Lu-GAS1]", "Biodistribution, CCK2i4svR(-) Tumor", "1.01 ± 0.30 %IA/g"]
]}

Next molecule, Biodistribution, CCK2i4svR(-) Tumor to be filled in.
Q: Which Biodistribution, CCK2i4svR(-) Tumor reading was recorded for the molecule CC(C)(C)C(=O)CN1C(=O)[C@H](NC(=O)Nc2cccc(C(=O)NCCOCCOCCOCCNC(=O)[C@H](CCC(=O)O)NC(=O)CCC(C(=O)O)N3CCN(CC(=O)[O-])CCN(CC(=O)[O-])CCN(CC(=O)[O-])CC3)c2)CN(C2CCCCC2)c2ccccc21.[67Ga+3] (stereo in doubt) [[^67Ga]Ga-GAS3] ?
Ans: 1.15 ± 0.18 %IA/g
